Sourced from patent US20110009447A1

Form: system (VEGFR II (KDR) (Homo sapiens)), quantity (IC50), values below.
measurement.type: IC50 (µM)

Under VEGFR II (KDR) (Homo sapiens): report IC50 of COc1ccc(/C=C\c2ccccc2C(=O)Nc2ccc(Cl)cc2)cc1 [Example 1.57] . 0.2

[1] COc1ccc(/C=C\c2ccccc2C(=O)Nc2cnc3ccccc3c2)cc1 [Example 1.60]
[2] COc1ccc(CCc2ccccc2C(=O)Nc2cnc3ccccc3c2)cc1 [Example 1.89]
[3] CCCc1ccc(NC(=O)c2ccccc2CCc2ccc(OC)cc2)cc1 [Example 1.67]
[4] CCCc1ccc(NC(=O)c2ccccc2CCc2ccncc2)cc1 [Example 1.1]
Order field: IC50 | Direction: descending (largest first) Would you mind listing the labels in the order requested? 3, 1, 2, 4
(3: 5 µM, 1: 0.5 µM, 2: 0.3 µM, 4: 0.2 µM)
